assay: Dissolving power of UV photoprotective filters in phenoxyalkyl esters; type: physicochemical; details: maximum dissolvable amount of UV filter Butyl Methoxydibenzoylmethane (BMDM) in the substance, percent by weight, 22° C.
experimental_readout: Dissolving power for BMDM
Answer shape: numeric part, then the unit.

Dissolving power for BMDM for CCCCCC(=O)OCCOc1ccccc1 [2-Phenoxyethyl caproate] ?
18%

Continue with CCCCCCC(CCCC)C(=O)OCCOc1ccccc1 (stereo not drawn) [2-Phenoxyethyl 2-butyloctanoate]
14%

Continue with CCCCCC(CCC)C(=O)OCCOc1ccccc1 (stereo not drawn) [2-Phenoxyethyl 2-propylheptanoate]
13%

Continue with CC(COc1ccccc1)OC(=O)C1CCCCC1 (stereo not drawn) [1-Phenoxy-2-propyl cyclohexanoate]
16%

Continue with CCCCC(CC)C(=O)OC(C)COc1ccccc1 (stereo not drawn) [1-Phenoxy-2-propyl 2-ethylhexanoate]
15%

Continue with CCCCCCCC(=O)OC(C)COc1ccccc1 (stereo not drawn) [1-Phenoxy-2-propyl caprylate, 1-phenoxy-2-propyloctanoic acid ester]
14%

----------
experiment: Dissolving power of UV photoprotective filters in phenoxyalkyl esters; assay type: physicochemical; conditions: maximum dissolvable amount of UV filter Butyl Methoxydibenzoylmethane (BMDM) in the substance, percent by weight, 22° C.
experimental_readout: Dissolving power for BMDM (%)
Answer format: numeric, % implied, no suffix.

Solved cases (3 shown):
CC(C)CCCCCC(=O)OCCOc1ccccc1 [2-Phenoxyethyl isononanoate] :: 16
CCCCCCCC(=O)OCCOc1ccccc1 [2-Phenoxyethyl caprylate, 2-phenoxyethyloctanoic acid ester] :: 18
CCCCC(CC)C(=O)OCCOc1ccccc1 (stereo not shown) [2-Phenoxyethyl 2-ethylhexanoate] :: 17

Now turn to the next molecule.
Dissolving power for BMDM for O=C(OCCOc1ccccc1)C1CCCCC1 [2-Phenoxyethyl cyclohexanoate] ?
19

----------
Reported Dissolving power for Uvinul T 150 values for a set of compounds
assay: Dissolving power of UV photoprotective filters in phenoxyalkyl esters; format: physicochemical; conditions: maximum dissolvable amount of UV filter Uvinul T 150 (Octyl Triazone, EHT) in the substance, percent by weight, 22° C.
Answer format: numeric, % implied, no suffix.

Solved cases (3 shown):
CCCCCCCC(=O)OCCOc1ccccc1 [2-Phenoxyethyl caprylate, 2-phenoxyethyloctanoic acid ester] :: 6
CCCCCC(=O)OCCOc1ccccc1 [2-Phenoxyethyl caproate] :: 6
CCCCC(CC)C(=O)OCCOc1ccccc1 (stereo not shown) [2-Phenoxyethyl 2-ethylhexanoate] :: 4

Now turn to the next compound.
Dissolving power for Uvinul T 150 for CCCCCCCC(=O)OC(C)COc1ccccc1 (stereo not shown) [1-Phenoxy-2-propyl caprylate, 1-phenoxy-2-propyloctanoic acid ester] ?
6

----------
experiment: Dissolving power of UV photoprotective filters in phenoxyalkyl esters; format: physicochemical; conditions: maximum dissolvable amount of UV filter Tinosorb S (Bemotrizinol, BEMT) in the substance, percent by weight, 22° C.
experimental_readout: Dissolving power for Tinosorb S

CCCCCC(CCC)C(=O)OCCOc1ccccc1 (stereo not shown) [2-Phenoxyethyl 2-propylheptanoate] :: 9%
CCCCCCCC(=O)OCCOc1ccccc1 [2-Phenoxyethyl caprylate, 2-phenoxyethyloctanoic acid ester] :: 11%
CCCCC(CC)C(=O)OC(C)COc1ccccc1 (stereo not shown) [1-Phenoxy-2-propyl 2-ethylhexanoate] :: 9%

Dissolving power for Tinosorb S for CCCCCC(=O)OCCOc1ccccc1 [2-Phenoxyethyl caproate] ?
11%

Continue with CC(COc1ccccc1)OC(=O)C1CCCCC1 (stereo not shown) [1-Phenoxy-2-propyl cyclohexanoate]
10%

----------
Reported Dissolving power for Uvinul T 150 values for a set of molecules
experiment: Dissolving power of UV photoprotective filters in phenoxyalkyl esters; type: physicochemical; conditions: maximum dissolvable amount of UV filter Uvinul T 150 (Octyl Triazone, EHT) in the substance, percent by weight, 22° C.
Answer format: numeric, % implied, no suffix.

CCCCC(CC)C(=O)OC(C)COc1ccccc1 (stereo not drawn) [1-Phenoxy-2-propyl 2-ethylhexanoate] :: 4
CCCCCCC(CCCC)C(=O)OCCOc1ccccc1 (stereo not drawn) [2-Phenoxyethyl 2-butyloctanoate] :: 5
CC(COc1ccccc1)OC(=O)C1CCCCC1 (stereo not drawn) [1-Phenoxy-2-propyl cyclohexanoate] :: 6
O=C(OCCOc1ccccc1)C1CCCCC1 [2-Phenoxyethyl cyclohexanoate] :: 6

Dissolving power for Uvinul T 150 for CCCCCC(CCC)C(=O)OCCOc1ccccc1 (stereo not drawn) [2-Phenoxyethyl 2-propylheptanoate] ?
4

Continue with CC(C)CCCCCC(=O)OCCOc1ccccc1 [2-Phenoxyethyl isononanoate]
4

----------
assay: Dissolving power of UV photoprotective filters in phenoxyalkyl esters; type: physicochemical; settings: maximum dissolvable amount of UV filter Benzophenone-3 (BP-3) in the substance, percent by weight, 22° C.
experimental_readout: Dissolving power for Benzophenone-3 (%)
Answer format: numeric, % implied, no suffix.

Solved cases (2 shown):
CC(COc1ccccc1)OC(=O)C1CCCCC1 (stereo not drawn) [1-Phenoxy-2-propyl cyclohexanoate] :: 27
CC(C)CCCCCC(=O)OCCOc1ccccc1 [2-Phenoxyethyl isononanoate] :: 25

Now turn to the next compound.
Dissolving power for Benzophenone-3 for CCCCCCCC(=O)OC(C)COc1ccccc1 (stereo not drawn) [1-Phenoxy-2-propyl caprylate, 1-phenoxy-2-propyloctanoic acid ester] ?
21

----------
experiment: Dissolving power of UV photoprotective filters in phenoxyalkyl esters; type: physicochemical; conditions: maximum dissolvable amount of UV filter Tinosorb S (Bemotrizinol, BEMT) in the substance, percent by weight, 22° C.
Reported Dissolving power for Tinosorb S values for a set of compounds

Solved cases (2 shown):
O=C(OCCOc1ccccc1)C1CCCCC1 [2-Phenoxyethyl cyclohexanoate] :: 12%
CC(C)CCCCCC(=O)OCCOc1ccccc1 [2-Phenoxyethyl isononanoate] :: 9%

Dissolving power for Tinosorb S for CCCCCCCC(=O)OC(C)COc1ccccc1 (centres unmarked) [1-Phenoxy-2-propyl caprylate, 1-phenoxy-2-propyloctanoic acid ester] ?
9%

Continue with CCCCC(CC)C(=O)OCCOc1ccccc1 (centres unmarked) [2-Phenoxyethyl 2-ethylhexanoate]
12%

Continue with CCCCCCC(CCCC)C(=O)OCCOc1ccccc1 (centres unmarked) [2-Phenoxyethyl 2-butyloctanoate]
8%
